Origin of the recorded values: patent US20080075726A1

Each entry below carries its recorded pIC50.
# measuredTarget: T1, recombinant human IL-6 (human, UniProt P05231 30-212, limits assumed)
# T1 construct: also called rhIL6; human recombinant IL-6
# assayRemarks: competition ELISA, rhIL-6 in solution against captured IL-6
Keep it numeric: pIC50 is minus log10 of the concentration in mol/L.

Look up pIC50 of mAb 197 (antibody, V domains shown) VH: QVTLKESGPALVKPTQTLTLTCTFSGFSLTTSGMCVSWIRQPPGKALEWLALIYWDDDKRYNPSLRSRLTITKDTSKNQVVLTMTNMDPVDTATYYCARSHDDYLYYALDYWGQGTLVT VL: DVVMTQSPSSVSASVGDRVTITCRASQVIDSWLHWYQREPGKAPKILIYAATTLQRGVPSRFSGSGFGTEFTLTISGLQPEDFATYFCQQGYSFPITFGQGTRLEIK and report it.
8.43

Using known records, supply pIC50 for mAb 184 (antibody, V domains shown) VH: QVTLKESGPALVKPTQTLTLTCTFSGFSLTTSGMCVSWIRQPPGKALEWLALIYWDDDKRYNPSLRSRLTITKDTSKNQVVLTMTNMDPVDTATYYCARSYDDYLYYALDYWGQGTLVT VL: DIQMTQSPSSLSASVGDSVTVTCRASQKMRTYLHWYQQKPGKAPKLLIYDVSFLQNGVPSRFSGRASGTEFTLTISDLQPEDFATYYCQQSYDTPLTFGQGTKLEIK
8.62

Give me measured pIC50, please, for this binder: mAb 968 (antibody, V domains shown) VH: QVTLKESGPTLVKPTQTLTLTCSFSGFSLSTSGVGVGWVRQPPGKALEWLAFIFWDDDKYYSPSLESRLTITKDTSKNQVVLTMTNMDPVDTATYYCARSYDDYLYYAFDYWGQGTLVT VL: DIQMTQSPSSLSAFVGDGVTMTCWASQSINDYLNWYHQRPGEAPELLVFAASNLQIGVPSRFRGSGSETYFTLTINSLQPEDSGTYFCQNGHSFPLTFGGGTKLEI
10.28
